# TEST_SUMMARY: Leukocyte (WBC) inhibition, toxicity LD50
# Assay type: cell-based, human
# CONDITION_CONTEXT: male, human, human leukocytes (buffy coat cells, mostly PBMCs); Table 41, lower part
No end group written: not given here.

[
  {
    "SUBSTANCE": "FALALKALKKAL-NH2 [106 (144)]",
    "CC50": "320 µg/mL"
  },
  {
    "SUBSTANCE": "KLAKKLAKLAKLAKAL-OH [121 (160)]",
    "CC50": "900 µg/mL"
  },
  {
    "SUBSTANCE": "FAKKLAKLAKKLLAL-NH2 [20 (38)]",
    "CC50": "54 µg/mL"
  },
  {
    "SUBSTANCE": "FAKKLAKKLKKLAKKLAK-NH2 [164 (69)]",
    "CC50": "140 µg/mL"
  }
]

###

The substances listed here are annotated with their MIC E. coli UB1005.
# System: E. coli UB1005
# Type: cell-based, Escherichia coli
# CONDITION_CONTEXT: Table 11
No end group written: not given here.

[
  {
    "SUBSTANCE": "FAKKALKALKKL-NH2 [P47 (29)]",
    "UNIT": "µg/mL",
    "MIC E. coli UB1005": 64
  },
  {
    "SUBSTANCE": "FALALKLAKKAL-NH2 [P167 (128)]",
    "UNIT": "µg/mL",
    "MIC E. coli UB1005": 32
  },
  {
    "SUBSTANCE": "FAKLLAKALKLKL-NH2 [P101 (65)]",
    "UNIT": "µg/mL",
    "MIC E. coli UB1005": 32
  },
  {
    "SUBSTANCE": "FAKKLAKKAKLAKKL-NH2 [P77 (53)]",
    "UNIT": "µg/mL",
    "MIC E. coli UB1005": 64
  },
  {
    "SUBSTANCE": "FALAKKALKKAKKAL-NH2 [P40 (22)]",
    "UNIT": "µg/mL",
    "MIC E. coli UB1005": 64
  },
  {
    "SUBSTANCE": "FKLAFKLAKKAFL-NH2 [P122 (84)]",
    "UNIT": "µg/mL",
    "MIC E. coli UB1005": 64
  },
  {
    "SUBSTANCE": "FAKLLAKALKKL-NH2 [P103 (67)]",
    "UNIT": "µg/mL",
    "MIC E. coli UB1005": 32
  },
  {
    "SUBSTANCE": "FAKKLKKLAKKL-NH2 [P79 (54)]",
    "UNIT": "µg/mL",
    "MIC E. coli UB1005": 32
  },
  {
    "SUBSTANCE": "FALALKALKK-NH2 [P169 (130)]",
    "UNIT": "µg/mL",
    "MIC E. coli UB1005": 32
  },
  {
    "SUBSTANCE": "FAKKLAKLAKKL-NH2 [P106 (70)]",
    "UNIT": "µg/mL",
    "MIC E. coli UB1005": 64
  },
  {
    "SUBSTANCE": "FAKLLAKLAKKL-NH2 [P49 (31)]",
    "UNIT": "µg/mL",
    "MIC E. coli UB1005": 32
  },
  {
    "SUBSTANCE": "FAKKLAKKLAKAL-NH2 [P74 (50)]",
    "UNIT": "µg/mL",
    "MIC E. coli UB1005": 16
  },
  {
    "SUBSTANCE": "FAKLLAKFLKKAL-NH2 [P113 (77)]",
    "UNIT": "µg/mL",
    "MIC E. coli UB1005": 32
  },
  {
    "SUBSTANCE": "VAKLLAKLAKKVL-NH2 [P154 (116)]",
    "UNIT": "µg/mL",
    "MIC E. coli UB1005": 64
  }
]

###

# System: BMKC
# TEST_SUMMARY: Anti-cancer assay, MTT, LD50
# Assay type: cell-based
# CONDITION_CONTEXT: BMKC cloned melanoma line, 24 hours with peptide
No end group written: not given here.
READOUT_NAME: LD50 BMKC (µg/mL)

[
  {
    "SUBSTANCE": "KWKLFKKKTKLFKKFAKKLAKKL-OH [P81]",
    "NUMERIC_RESULT": 12
  },
  {
    "SUBSTANCE": "FAKALKALLKALKAL-NH2 [P64]",
    "NUMERIC_RESULT": 35
  },
  {
    "SUBSTANCE": "FAKKLAKKLKKLAKKLAKKWKL-NH2 [P70]",
    "NUMERIC_RESULT": 94
  },
  {
    "SUBSTANCE": "FAKLLAKALKLKL-NH2 [P101]",
    "NUMERIC_RESULT": 160
  },
  {
    "SUBSTANCE": "MPKWKVFKKIEKVGRNIRNGIVKAGPAIAVLGEAKALG-OH [SB37COOH]",
    "NUMERIC_RESULT": 120
  },
  {
    "SUBSTANCE": "FALALKALKKALKKLKKALKKAL-NH2 [P2, reference compound]",
    "NUMERIC_RESULT": 128
  },
  {
    "SUBSTANCE": "FAKLLALALKLKL-NH2 [P94]",
    "NUMERIC_RESULT": 11
  },
  {
    "SUBSTANCE": "FAKKLAKKLKKLAKKLAK-OH [P71]",
    "NUMERIC_RESULT": 445
  },
  {
    "SUBSTANCE": "KLALKLALKALKAAKLA-NH2 [P150]",
    "NUMERIC_RESULT": 190
  },
  {
    "SUBSTANCE": "FAKLLAKALKKL-NH2 [P103]",
    "NUMERIC_RESULT": 75
  },
  {
    "SUBSTANCE": "KLLKLLLKLYKKLLKLL-OH [P156]",
    "NUMERIC_RESULT": 520
  }
]

###

The compounds listed here are annotated with their HC50 at 1 h.
# TEST_SUMMARY: in vitro
# Type: cell-based, human
# CONDITION_CONTEXT: human, human red blood cells, pH 7, Table 26, valine substitution; read-out: Hemolysis RBC LD50

[
  {
    "COMPOUND": "CC(C)C[C@H](NC(=O)[C@H](C)NC(=O)[C@H](CC(C)C)NC(=O)[C@H](CCCCN)NC(=O)[C@H](C)NC(=O)[C@H](CC(C)C)NC(=O)[C@H](CCCCN)NC(=O)[C@H](CCCCN)NC(=O)[C@H](C)NC(=O)[C@H](CC(C)C)NC(=O)[C@H](CCCCN)NC(=O)[C@H](C)NC(=O)[C@H](CC(C)C)NC(=O)[C@H](CCCCN)NC(=O)[C@H](CCCCN)NC(=O)[C@H](C)NC(=O)[C@@H](N)Cc1ccccc1)C(N)=O [compound 35]",
    "HC50 at 1 h / µg/mL": 150
  },
  {
    "COMPOUND": "CC(C)C[C@H](NC(=O)[C@H](C)NC(=O)[C@H](CC(C)C)NC(=O)[C@H](C)NC(=O)[C@H](CC(C)C)NC(=O)[C@H](CCCCN)NC(=O)[C@H](C)NC(=O)[C@H](CC(C)C)NC(=O)[C@H](CCCCN)NC(=O)[C@H](CCCCN)NC(=O)[C@H](C)NC(=O)[C@H](CC(C)C)NC(=O)[C@H](CCCCN)NC(=O)[C@H](C)NC(=O)[C@H](CC(C)C)NC(=O)[C@H](CCCCN)NC(=O)[C@H](CCCCN)NC(=O)[C@H](C)NC(=O)[C@@H](N)Cc1ccccc1)C(N)=O [compound 36]",
    "HC50 at 1 h / µg/mL": 12
  },
  {
    "COMPOUND": "CC(C)C[C@H](NC(=O)[C@H](C)NC(=O)[C@H](CC(C)C)NC(=O)[C@H](C)NC(=O)[C@H](CC(C)C)NC(=O)[C@H](CCCCN)NC(=O)[C@H](C)NC(=O)[C@H](CC(C)C)NC(=O)[C@H](CCCCN)NC(=O)[C@H](CCCCN)NC(=O)[C@H](C)NC(=O)[C@H](CC(C)C)NC(=O)[C@H](CCCCN)NC(=O)[C@H](C)NC(=O)[C@H](CC(C)C)NC(=O)[C@H](CCCCN)NC(=O)[C@H](CCCCN)NC(=O)[C@H](C)NC(=O)[C@@H](N)C(C)C)C(N)=O [compound 504]",
    "HC50 at 1 h / µg/mL": 70
  }
]
